Tested on: INa in rat DRG
Experiment: Inhibition of INa current in dissociated rat DRG neurons
Format: cell-based
Details: ratio of INa IC50 to T-type IC50
measured parameter: Na/T

Answered examples (3):
- CC(C)(C)CCN1CCC2(CC1)CC2NC(=O)Cc1cc(C(F)(F)F)cc(C(F)(F)F)c1 (stereo not drawn) [AFA-221]: 43
- CC(C)(C)NC(=O)CN1CCC2(CC1)CC2NC(=O)c1cc(F)cc(C(F)(F)F)c1 (stereo not drawn) [AFA-281]: >557
- CC(C)(C)NC(=O)CN1CCC2(CC1)C[C@H]2NC(=O)C12CC3CC(CC(C3)C1)C2 [AFA-309]: >212

Let us move to another entry and its Na/T.
The recorded Na/T for CC(C)(C)NC(=O)CN1CCC2(CC1)CC2C(=O)Nc1cc(C(F)(F)F)cc(C(F)(F)F)c1 (stereo not drawn) [AFA-322] is 103

* * *

Target: hCav3.2 Channel (Homo sapiens)
Construct: expressed in transfected cells
Assay: Recombinant hCav3.2 channel expressed in mammalian cells
Format: cell-based
Set-up: concentration or dose not given beside the values
Source text: A representative panel of AFA/EX compounds was investigated on a variety of recombinant human ion channels expressed in mammalian cells and on native ion channels in dissociated rat dorsal root ganglion (DRG) neurons. […] Thus, this panel of compounds was next investigated on their effects on itching scratching behavior in two well-established itching models in mice.
Output Yes for hCav3.2 Channel % Use Dep. (use dependent inhibition) not less than 20%; output No otherwise.

Below are worked cases with known answers.
* CC(C)(C)NC(=O)CN1CCC2(CC1)CC2C(=O)Nc1cc(C(F)(F)F)cc(C(F)(F)F)c1 (stereo not shown) | Yes
* CC(C)(C)NC(=O)CN1CCC(CNC(=O)c2cc(F)cc(Cl)c2)CC1 [AFA-258, reference compound] | No
* CC(C)(C)NC(=O)CN1CCC2(CC1)CC2NC(=O)c1cc(F)cc(C(F)(F)F)c1 (stereo not shown) | No
* CC(C)(C)CCN1CCC2(CC1)CC2NC(=O)Cc1cc(C(F)(F)F)cc(C(F)(F)F)c1 (stereo not shown) | Yes
* CC(C)(C)CCN1CCC2(CC1)CC2N(CC1CC1)C(=O)c1cc(Cl)cc(Cl)c1 (stereo not shown) | No

Entry CC(C)(C)NC(=O)CN1CCC2(CC1)C[C@H]2NC(=O)C12CC3CC(CC(C3)C1)C2 : is its hCav3.2 Channel % Use Dep. (use dependent inhibition) no less than 20%? No

Entry CC(C)(C)NC(=O)CN1CCC2(CC1)CC2NC(=O)c1cc(F)cc(Cl)c1 (stereo not shown) : is its hCav3.2 Channel % Use Dep. (use dependent inhibition) no less than 20%? Yes

* * *

Target: hCav2.2 (Homo sapiens, UniProt Q00975)
Assay: Recombinant hCav2.2 channel expressed in mammalian cells
Settings: recombinant human channel
Each entry below carries its recorded pIC50.
Answer as the number alone; pIC50 is minus log10 of concentration in mol/L.

- CC(C)(C)NC(=O)CN1CCC2(CC1)CC2C(=O)Nc1cc(C(F)(F)F)cc(C(F)(F)F)c1 (stereo not shown): 5.51
- C[C@H]1CN(S(=O)(=O)c2ccc(C(F)(F)F)cc2)CCN1C(=O)c1ccc2cccnc2c1: 5.05
- O=C(NC1CC12CCN(S(=O)(=O)c1ccc(C(F)(F)F)cc1)CC2)c1cc(C(F)(F)F)cc(C(F)(F)F)c1 (stereo not shown): 6.13

Let us move to another entry and its pIC50.
The recorded pIC50 for CC(C)(C)NC(=O)CN1CCC2(CC1)C[C@H]2NC(=O)C12CC3CC(CC(C3)C1)C2 is 4.81

* * *

Biological target: hERG potassium (K+) channels (Homo sapiens)
Construct: expressed in transfected cells
Sequence (Q12809 whole entry): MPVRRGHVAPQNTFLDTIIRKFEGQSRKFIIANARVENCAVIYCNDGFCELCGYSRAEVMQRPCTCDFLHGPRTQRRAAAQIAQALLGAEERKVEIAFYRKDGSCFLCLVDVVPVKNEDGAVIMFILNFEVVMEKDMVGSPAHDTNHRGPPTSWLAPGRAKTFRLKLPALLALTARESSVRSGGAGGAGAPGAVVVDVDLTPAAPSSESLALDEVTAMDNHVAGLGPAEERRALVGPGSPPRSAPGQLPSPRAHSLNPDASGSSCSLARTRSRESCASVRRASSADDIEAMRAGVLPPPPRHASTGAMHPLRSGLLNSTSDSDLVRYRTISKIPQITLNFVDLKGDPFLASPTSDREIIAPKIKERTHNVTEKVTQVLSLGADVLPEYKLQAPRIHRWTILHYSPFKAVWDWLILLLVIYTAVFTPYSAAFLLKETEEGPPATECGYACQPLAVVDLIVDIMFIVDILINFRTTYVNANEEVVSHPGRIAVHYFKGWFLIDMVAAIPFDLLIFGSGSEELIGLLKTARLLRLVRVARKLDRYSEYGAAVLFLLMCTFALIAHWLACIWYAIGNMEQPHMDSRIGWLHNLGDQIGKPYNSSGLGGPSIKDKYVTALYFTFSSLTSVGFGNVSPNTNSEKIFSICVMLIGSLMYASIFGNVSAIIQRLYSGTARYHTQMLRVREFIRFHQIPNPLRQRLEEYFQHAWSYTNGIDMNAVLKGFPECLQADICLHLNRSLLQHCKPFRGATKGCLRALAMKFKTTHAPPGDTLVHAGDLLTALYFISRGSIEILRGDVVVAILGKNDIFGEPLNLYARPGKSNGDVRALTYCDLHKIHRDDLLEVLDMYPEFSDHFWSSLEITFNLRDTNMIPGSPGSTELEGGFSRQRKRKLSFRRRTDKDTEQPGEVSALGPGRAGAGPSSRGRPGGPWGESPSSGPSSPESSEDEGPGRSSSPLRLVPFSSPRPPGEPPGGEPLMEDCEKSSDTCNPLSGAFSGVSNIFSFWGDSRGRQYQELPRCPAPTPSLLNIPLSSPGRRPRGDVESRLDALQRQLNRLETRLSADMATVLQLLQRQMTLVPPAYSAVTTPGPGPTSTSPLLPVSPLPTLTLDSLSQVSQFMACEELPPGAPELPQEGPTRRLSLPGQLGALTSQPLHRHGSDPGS
Assay: hERG potassium channel inhibition
Assay type: cell-based
measured parameter: pIC50
Answer as the number alone; pIC50 is minus log10 of concentration in mol/L.

Answered examples (2):
- CC(C)(C)NC(=O)CN1CCC2(CC1)CC2NC(=O)c1cc(F)cc(C(F)(F)F)c1 (stereo not shown): 5.10
- CC(C)(C)NC(=O)CN1CCC2(CC1)CC2NC(=O)c1cc(F)cc(Cl)c1 (stereo not shown): 5.17

Let us move to another entry and its pIC50.
Case CC(C)(C)NC(=O)CN1CCC2(CC1)CC2C(=O)Nc1cc(C(F)(F)F)cc(C(F)(F)F)c1 (stereo not shown) , hERG potassium (K+) channels (Homo sapiens), pIC50 recorded as 5.04

* * *

Each entry below carries its recorded pIC50.
Biological target: hCav1.2 (Homo sapiens)
Assay: Recombinant hCav1.2 channel expressed in mammalian cells
pIC50: −log10 of the molar value.

* CC(C)(C)NC(=O)CN1CCC(CNC(=O)c2cc(F)cc(Cl)c2)CC1 [AFA-258, reference compound] | < 4.52

Let us move to another entry and its pIC50.
The recorded pIC50 for CC(C)(C)NC(=O)CN1CCC2(CC1)C[C@H]2NC(=O)C12CC3CC(CC(C3)C1)C2 [AFA-309] is < 4.52

* * *

Each entry below carries its recorded IC50.
Target: hNav1.5 (Homo sapiens, UniProt Q14524)
Sequence (Q14524 whole entry): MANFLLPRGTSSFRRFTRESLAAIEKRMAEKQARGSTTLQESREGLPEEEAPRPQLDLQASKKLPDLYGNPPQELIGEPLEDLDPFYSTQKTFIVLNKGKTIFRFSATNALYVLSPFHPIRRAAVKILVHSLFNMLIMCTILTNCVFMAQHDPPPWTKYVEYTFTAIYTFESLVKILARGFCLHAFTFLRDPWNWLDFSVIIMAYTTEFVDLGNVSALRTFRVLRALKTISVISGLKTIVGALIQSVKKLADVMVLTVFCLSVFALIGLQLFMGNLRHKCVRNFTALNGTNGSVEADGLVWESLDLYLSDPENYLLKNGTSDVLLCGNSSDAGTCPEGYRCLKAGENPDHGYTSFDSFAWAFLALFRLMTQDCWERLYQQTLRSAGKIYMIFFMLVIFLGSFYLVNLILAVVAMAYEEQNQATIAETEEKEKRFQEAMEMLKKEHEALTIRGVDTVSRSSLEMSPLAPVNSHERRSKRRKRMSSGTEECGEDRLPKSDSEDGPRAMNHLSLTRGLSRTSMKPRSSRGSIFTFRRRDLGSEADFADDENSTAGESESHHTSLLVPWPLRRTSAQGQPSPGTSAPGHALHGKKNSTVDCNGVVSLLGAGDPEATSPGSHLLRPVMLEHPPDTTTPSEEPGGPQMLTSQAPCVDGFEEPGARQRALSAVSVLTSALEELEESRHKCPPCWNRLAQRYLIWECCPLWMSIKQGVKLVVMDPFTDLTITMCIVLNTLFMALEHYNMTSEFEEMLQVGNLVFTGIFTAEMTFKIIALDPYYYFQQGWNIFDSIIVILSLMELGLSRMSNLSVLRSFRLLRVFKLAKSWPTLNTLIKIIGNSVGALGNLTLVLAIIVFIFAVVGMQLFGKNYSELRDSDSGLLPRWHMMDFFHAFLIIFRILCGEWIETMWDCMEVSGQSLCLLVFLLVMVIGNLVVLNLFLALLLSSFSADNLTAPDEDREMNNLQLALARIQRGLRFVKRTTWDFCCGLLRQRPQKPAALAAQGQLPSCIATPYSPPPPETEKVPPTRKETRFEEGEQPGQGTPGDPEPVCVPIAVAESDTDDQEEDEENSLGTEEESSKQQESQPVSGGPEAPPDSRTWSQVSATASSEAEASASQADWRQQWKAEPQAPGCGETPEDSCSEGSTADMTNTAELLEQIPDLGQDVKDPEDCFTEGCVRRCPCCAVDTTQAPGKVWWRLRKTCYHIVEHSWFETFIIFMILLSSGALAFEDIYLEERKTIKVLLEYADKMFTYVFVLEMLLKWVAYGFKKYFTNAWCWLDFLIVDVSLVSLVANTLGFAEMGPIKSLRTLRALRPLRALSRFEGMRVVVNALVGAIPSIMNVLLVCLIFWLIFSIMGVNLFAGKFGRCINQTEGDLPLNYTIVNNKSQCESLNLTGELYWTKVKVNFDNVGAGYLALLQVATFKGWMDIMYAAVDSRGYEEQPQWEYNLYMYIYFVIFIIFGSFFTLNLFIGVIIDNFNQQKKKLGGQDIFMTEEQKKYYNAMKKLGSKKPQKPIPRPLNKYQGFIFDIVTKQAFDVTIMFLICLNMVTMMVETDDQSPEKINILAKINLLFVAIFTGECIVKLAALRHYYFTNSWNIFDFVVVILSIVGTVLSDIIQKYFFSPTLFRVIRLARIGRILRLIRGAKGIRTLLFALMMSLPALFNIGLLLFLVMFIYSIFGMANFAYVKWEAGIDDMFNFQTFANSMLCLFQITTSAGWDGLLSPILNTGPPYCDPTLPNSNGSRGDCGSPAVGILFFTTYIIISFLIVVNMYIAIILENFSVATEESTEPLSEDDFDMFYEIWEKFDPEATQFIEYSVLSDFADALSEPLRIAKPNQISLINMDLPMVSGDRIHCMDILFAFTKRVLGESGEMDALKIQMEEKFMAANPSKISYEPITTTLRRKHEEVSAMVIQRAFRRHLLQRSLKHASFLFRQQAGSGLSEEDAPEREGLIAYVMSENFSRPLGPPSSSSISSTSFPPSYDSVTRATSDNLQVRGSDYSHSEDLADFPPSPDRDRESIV
Assay: Recombinant hNav1.5 channel expressed in mammalian cells

Answered examples (4):
• CC(C)(C)NC(=O)CN1CCC2(CC1)CC2NC(=O)c1cc(F)cc(Cl)c1 (centres unmarked) = 76.4 µM
• CC(C)(C)NC(=O)CN1CCC2(CC1)C[C@H]2NC(=O)C12CC3CC(CC(C3)C1)C2 = 25.8 µM
• CC(C)(C)NC(=O)CN1CCC2(CC1)CC2C(=O)Nc1cc(C(F)(F)F)cc(C(F)(F)F)c1 (centres unmarked) = 23.5 µM
• CC(C)(C)NC(=O)CN1CCC2(CC1)CC2NC(=O)c1cc(F)cc(C(F)(F)F)c1 (centres unmarked) = > 100 µM

Let us move to another entry and its IC50.
Case CC(C)(C)NC(=O)CN1CCC(CNC(=O)c2cc(F)cc(Cl)c2)CC1 [AFA-258, reference compound] , hNav1.5 (Homo sapiens, UniProt Q14524), IC50 recorded as > 100 µM

* * *

Biological target: hCav3.2 Channel (Homo sapiens)
Assay: Recombinant hCav3.2 channel expressed in mammalian cells
measured parameter: IC50 (nM)
Answer with a number only, understood to be in nM.

Answered examples (4):
- CC(C)(C)NC(=O)CN1CCC2(CC1)CC2NC(=O)c1cc(F)cc(C(F)(F)F)c1 (stereo not drawn): 179
- CC(C)(C)NC(=O)CN1CCC2(CC1)CC2C(=O)Nc1cc(C(F)(F)F)cc(C(F)(F)F)c1 (stereo not drawn): 138
- CC(C)(C)NC(=O)CN1CCC2(CC1)C[C@H]2NC(=O)C12CC3CC(CC(C3)C1)C2: 141
- CC(C)(C)CCN1CCC2(CC1)CC2NC(=O)Cc1cc(C(F)(F)F)cc(C(F)(F)F)c1 (stereo not drawn): 84

The recorded IC50 for C[C@H]1CN(S(=O)(=O)c2ccc(C(F)(F)F)cc2)CCN1C(=O)c1ccc2cccnc2c1 is 10400

The recorded IC50 for CC(C)(C)CCN1CCC2(CC1)CC2N(CC1CC1)C(=O)c1cc(Cl)cc(Cl)c1 (stereo not drawn) is 67

The recorded IC50 for CC(C)(C)NC(=O)CN1CCC2(CC1)CC2NC(=O)c1cc(F)cc(Cl)c1 (stereo not drawn) is 113

The recorded IC50 for CC(C)(C)NC(=O)CN1CCC(CNC(=O)c2cc(F)cc(Cl)c2)CC1 [AFA-258, reference compound] is 195

The recorded IC50 for O=C(NC1CC12CCN(S(=O)(=O)c1ccc(C(F)(F)F)cc1)CC2)c1cc(C(F)(F)F)cc(C(F)(F)F)c1 (stereo not drawn) is 1010

* * *

Each entry below carries its recorded hERG % at 1 μM.
Biological target: hERG potassium (K+) channels (Homo sapiens)
Construct: expressed in transfected cells
Assay: hERG potassium channel inhibition
Assay type: cell-based
Details: at 1 μM
Answer with a number only, understood to be in % at.

Answered examples (3):
• O=C(NC1CC12CCN(S(=O)(=O)c1ccc(C(F)(F)F)cc1)CC2)c1cc(C(F)(F)F)cc(C(F)(F)F)c1 (stereo not shown) = 59
• C[C@H]1CN(S(=O)(=O)c2ccc(C(F)(F)F)cc2)CCN1C(=O)c1ccc2cccnc2c1 = 23
• CC(C)(C)CCN1CCC2(CC1)CC2NC(=O)Cc1cc(C(F)(F)F)cc(C(F)(F)F)c1 (stereo not shown) = 31

Let us move to another entry and its hERG % at 1 μM.
The recorded hERG % at 1 μM for CC(C)(C)CCN1CCC2(CC1)CC2N(CC1CC1)C(=O)c1cc(Cl)cc(Cl)c1 (stereo not shown) is 50
